assay: blockers of DNA damage checkpoint Chk1 activation – imaging, HeLa, hydroxyurea, phospho-Chk1 antibody, percent positive cells, primary screen (AID 1186); details: hydroxyurea-induced phospho-Chk1 immunofluorescence imaging, higher = more signal
Could you label it 1 (yes) if measured z-score is -0.0001 or higher, and 0 (no) otherwise?

COMPOUND: O=C1O[C@H](c2ccccc2)[C@H](c2ccccc2)N2[C@H]1[C@@H](C(=O)N1CCN(c3ncccn3)CC1)[C@]1(C(=O)Nc3ccc(C#CCCO)cc31)[C@H]2c1ccc(O)cc1
LABEL_CLASS: 0 (no)

COMPOUND: Cc1ccc(F)cc1S(=O)(=O)N[C@H]1CCN(Cc2ccc(OC(C)C)cc2)C1
LABEL_CLASS: 0 (no)

COMPOUND: COc1ccc([Si](C)(C)[C@@H]2[C@@H](CC(=O)N(CCO)Cc3ccccc3)O[C@]3(C(=O)N(Cc4ccc(N5C(=O)c6cccc7cccc5c67)cc4)c4ccccc43)[C@H]2C)cc1
LABEL_CLASS: 1 (yes)

COMPOUND: COC(=O)[C@@]1(Cc2ccc(F)cc2)[C@H]2c3cc(C(=O)N(C)C)n(CCc4ccc(O)c(O)c4)c3C[C@H]2CN1C(=O)c1ccccc1
LABEL_CLASS: 0 (no)

COMPOUND: COC(=O)C(CC#Cc1ccc2c(c1)[C@]1(C(=O)N2)[C@H](c2ccccc2OCCO)N2[C@H](c3ccccc3)[C@H](c3ccccc3)OC(=O)[C@H]2[C@@H]1C(=O)N1CCc2cc(OC)c(OC)cc2C1)C(=O)OC
LABEL_CLASS: 0 (no)

COMPOUND: C=C1C(=O)C=C2CN(C(=O)c3ccccc3)[C@@](Cc3ccc(OC)cc3)(C(=O)OC)[C@@H]12
LABEL_CLASS: 1 (yes)

COMPOUND: N#Cc1ccc(NN2C(C(O)C3CC=CCC3)C=CC3C(=O)N(c4ccccc4)C(=O)C32)cc1 (stereo not drawn)
LABEL_CLASS: 1 (yes)

COMPOUND: COc1cc(CO)cc(I)c1O[C@H]1C=C(C(=O)NCCO)C[C@@H](NC2CCCCCC2)[C@@H]1O
LABEL_CLASS: 0 (no)

COMPOUND: COC(=O)[C@@]1(Cc2ccccc2)[C@H]2c3cc(C(=O)N(C)C)n(Cc4ccc(C(F)(F)F)nc4)c3C[C@H]2CN1C(=O)c1ccccc1
LABEL_CLASS: 1 (yes)

COMPOUND: O=C1NC(=O)C2C1C=CC(C(O)c1ccc([N+](=O)[O-])cc1)N2Nc1ccccn1 (stereo not drawn)
LABEL_CLASS: 0 (no)

COMPOUND: O=C1C[C@@](C(=O)O)(c2ccc([N+](=O)[O-])cc2)[C@@H](c2ccc(CO)cc2)N1C1CCCCC1
LABEL_CLASS: 0 (no)

COMPOUND: NC(=O)NCC#Cc1ccc2c(c1)[C@]1(C(=O)N2)[C@H](c2ccc(OCCO)cc2)N2[C@H](c3ccccc3)[C@H](c3ccccc3)OC(=O)[C@H]2[C@@H]1C(=O)O
LABEL_CLASS: 1 (yes)

###

# reported z-score; entries follow
assay: optical density change of DRC41 E. coli – strain DRC41, OD650, 24 h, E. coli filamentation project, primary screen (AID 1093);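 further: MC1000 strain lacking acrAB efflux and sulA so SOS filamentation is blocked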; conditions: E. coli DRC41 growth, higher = more signal, called active from +8 up or from −8 down

COMPOUND_STRUCTURE: COC(=O)[C@@]1(Cc2ccc(F)cc2)[C@H]2c3cc(C(=O)N4CCCC4)n(Cc4cc(F)cc5c4OCOC5)c3C[C@H]2CN1C(=O)c1ccccc1
z-score: -0.0269

COMPOUND_STRUCTURE: O=C(NCCN1CCOCC1)[C@@H]1c2ccccc2C(=O)N(Cc2ccc(OC(F)(F)F)cc2)[C@H]1c1ccc(CO)cc1
z-score: 0.0461

COMPOUND_STRUCTURE: COCCCN1C(=O)[C@@]2(c3ccc([N+](=O)[O-])cc3)CC(=O)N(CC34CC5CC(CC(C5)C3)C4)[C@@H]2c2ccc(CO)cc21
z-score: -0.0011

COMPOUND_STRUCTURE: CO[C@H]1O[C@H](CO)[C@@H](OC(=O)Nc2ccccc2-c2ccccc2)[C@H](OC(=O)Nc2ccccc2)[C@H]1OC(=O)Nc1ccccc1
z-score: 0.517

###

tested on: XIP peptide (Xip251-270) binding; test: XIP fragment 251-270 binding compounds – biochemical, small-molecule microarray, fluorescence 635/667 nm, 0.1 µg/mL protein, primary screen (AID 1182); settings: fluorescent protein binding, 635 nm, higher = more signal, called active from +8 up or from −8 down
Calls of active or inactive are those of the source.

COMPOUND: CC(C)C[C@H]1NC(=O)C([C@@H](C)OCc2ccccc2)NC(=O)[C@@]23C(=O)N[C@@H](Cc4ccccc4)C2[C@H](C)[C@@]2(C)O[C@H]2C3/C=C/C/C=C\CNC1=O (stereo partly specified)
TESTED_TARGET: XIP peptide (Xip251-270) binding
composite z-score: 0.304 (inactive)

COMPOUND: CC1=C([C@H](O)CCc2ccccc2)[C@H](CO)n2c(=O)n(-c3ccccc3)c(=O)n2C1
TESTED_TARGET: XIP peptide (Xip251-270) binding
composite z-score: -0.611 (inactive)

COMPOUND: CC(C)C(=C=CC[C@H](O)c1ccccc1OCCO)C[C@H](O)COCc1ccccc1
TESTED_TARGET: XIP peptide (Xip251-270) binding
composite z-score: -0.182 (inactive)

COMPOUND: O=C(NCCN1CCOCC1)[C@@H]1c2ccccc2C(=O)N(Cc2ccc(OC(F)(F)F)cc2)[C@H]1c1ccc(CO)cc1
TESTED_TARGET: XIP peptide (Xip251-270) binding
composite z-score: 0.441 (inactive)

COMPOUND: Cc1ccc(S[C@]2(C(=O)NC(C)C)CC(=O)N(C3CCCCC3)[C@@H]2c2ccc(CO)cc2I)cc1
TESTED_TARGET: XIP peptide (Xip251-270) binding
composite z-score: 0.814 (inactive)

COMPOUND: CCOC(=O)C1=CC[C@@H](c2ccc(OC)cc2)N(S(=O)(=O)c2ccc(C)cc2)[C@H]1CC
TESTED_TARGET: XIP peptide (Xip251-270) binding
composite z-score: 0.441 (inactive)

COMPOUND: CO[C@H]1O[C@H](CO)[C@@H](OC(=O)Nc2ccccc2-c2ccccc2)[C@H](OC(=O)Nc2ccccc2)[C@H]1OC(=O)Nc1ccccc1
TESTED_TARGET: XIP peptide (Xip251-270) binding
composite z-score: -0.249 (inactive)

COMPOUND: COCCOC(=O)N1C(=O)[C@@]2(c3cc(C#CC4(O)CCCCCC4)ccc31)[C@H](c1ccc(O)cc1)N1[C@H](c3ccccc3)[C@H](c3ccccc3)OC(=O)[C@H]1[C@@H]2C(=O)N1CCCCCCC1
TESTED_TARGET: XIP peptide (Xip251-270) binding
composite z-score: 0.265 (inactive)

COMPOUND: COC(=O)[C@@]1(Cc2ccc(OC)cc2)[C@H]2c3cc(C(=O)N(C)C)[nH]c3C[C@H]2CN1C(=O)c1ccccc1
TESTED_TARGET: XIP peptide (Xip251-270) binding
composite z-score: 0.0849 (inactive)

COMPOUND: C=CC[C@@]12N=C(c3ccc(OCCCO)cc3)O[C@@H]1c1ccccc1N(CCC)C2=O
TESTED_TARGET: XIP peptide (Xip251-270) binding
composite z-score: 2.48 (inactive)

COMPOUND: CC(=O)NCCCC[C@@H]1NC(=O)[C@H]2C[C@@H](C(=O)NCCCCCCNC(=O)CS)[C@@H](c3cccc(OCCO)c3)N2C1=O
TESTED_TARGET: XIP peptide (Xip251-270) binding
composite z-score: 2.82 (inactive)

###

experiment: probe aWnt5a binding to arrayed compounds – biochemical, biotinylated probe, 635/667 nm fluorescence, primary screen (AID 1113); details: small-molecule microarray, higher = more signal;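 further: score merges 667 nm fluorescence intensity with signal-to-noise per printed feature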
Could you label it 1 if measured composite z-score is 0.3 or higher, and -1 otherwise?

MOLECULE: O=C1O[C@@H](c2ccccc2)[C@@H](c2ccccc2)N2[C@@H](c3ccc(OCCO)cc3)[C@]3(C(=O)Nc4ccc(C#CC5(O)CCCCCC5)cc43)[C@@H](C(=O)Nc3nc4ccccc4s3)[C@H]12
LABEL_CLASS: -1
//
MOLECULE: CCCC[C@H]1OB(O)C[C@H]2C1=C(COc1ccccc1)C[C@H]1C(=O)C=CC(=O)[C@H]12
LABEL_CLASS: -1
//
MOLECULE: CCOC(=O)C1=CCC(c2cc3ccccc3[nH]2)N(CCN2CC(C(=O)OCC)=CCC2c2cc3ccccc3[nH]2)C1 (stereo unspecified)
LABEL_CLASS: -1
//
MOLECULE: CCCC=C(CCC)[C@@H](NC(=O)c1ccc(C(F)(F)F)cc1)c1ccc(C(F)(F)F)cc1
LABEL_CLASS: -1
//
MOLECULE: COCCOC(=O)N1C(=O)[C@@]2(c3cc(C#CCCO)ccc31)[C@H](c1ccc(OCCO)cc1)N1[C@H](c3ccccc3)[C@H](c3ccccc3)OC(=O)[C@H]1[C@@H]2C(=O)N1CCCCCCC1
LABEL_CLASS: 1
//
MOLECULE: COC(=O)[C@@]1(Cc2ccccc2)[C@H]2c3cc(C(=O)N(C)C)n(Cc4ccc(S(C)(=O)=O)cc4)c3C[C@H]2CN1C(=O)c1ccccc1
LABEL_CLASS: -1
